FYI, the data here is from the supplement of paper PMC9112550.

The entries below are paired with their reported shrunken log2 fold change.
# System: Escherichia coli TOP10;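 note: peptides expressed intracellularly from a pBAD plasmid library in pooled LB shake-flask culture, induced with 0.3% L-arabinose, DNA abundance read by NGS, three biological replicates, DESeq2 with apeglm shrinkage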
# test details: shrunken log2 fold change of peptide-encoding DNA abundance (4.5 h post-induction vs induction); higher = less antimicrobial activity (less host growth inhibition)
# measurement context: time post-induction: 4.5 h; library: site-saturation at positions 5, 18, 19, 20
Write no unit; give the number alone.

RRIRERPPRLPRPRPRPHVRPRP
-0.105
RRIRIRPPRLPRPRPRPIHEPRP
-0.316
RRIRIRPPRLPRPRPRPISMPRP
0.0215
RRIRHRPPRLPRPRPRPPSKPRP
-0.122

response.value for `RRIRYRPPRLPRPRPRPEDNPRP` (field: shrunken log2 fold change) = -0.0125

response.value for `RRIRTRPPRLPRPRPRPKRGPRP` (field: shrunken log2 fold change) = 0.175

response.value for `RRIRCRPPRLPRPRPRPFHDPRP` (field: shrunken log2 fold change) = -0.727

response.value for `RRIRTRPPRLPRPRPRPHRFPRP` (field: shrunken log2 fold change) = -0.0213

response.value for `RRIRMRPPRLPRPRPRPKTDPRP` (field: shrunken log2 fold change) = 1.32

response.value for `RRIRGRPPRLPRPRPRPFLPPRP` (field: shrunken log2 fold change) = -0.148
